Tested on: HeLa
Experiment: Antiproliferative activity against human HeLa cells assessed as reduction in cell number incubated for 72 hrs
Assay type: functional
assay.metric: GI50 (µM)
Give the number; µM is assumed, so skip it.

{"structure": "CC/C(=C(\\c1ccccc1)c1ccc(NC(=O)CCCCCCCCC(=O)OCCCc2cc(COC(=O)NCC(=O)N[C@H]3CCc4cc(OC)c(OC)c(OC)c4-c4ccc(SC)c(=O)cc43)ccc2OC(C)=O)cc1)c1ccccc1", "study.system": "HeLa", "assay.metric": "GI50", "assay.result": 4.2}

From here, focus on the item given below.
Complete the entry with GI50 for CC/C(=C(\c1ccccc1)c1ccc(NC(=O)CCCSSCCCC(=O)OCCCc2cc(COC(=O)NCC(=O)N[C@H]3CCc4cc(OC)c(OC)c(OC)c4-c4ccc(SC)c(=O)cc43)ccc2OC(C)=O)cc1)c1ccccc1
2.8

* * *

Assay: Stability assessed as Celite-supported formulation of Pseudomonas cepacia lipase PS-mediated drug hydrolysis in presence of pH 7 phosphate buffer by reversed-phase HPLC
Assay type: ADME
Settings: read-out: Drug degradation
assay.metric: metabolised (%)
Give the number; % is assumed, so skip it.

Complete the entry with metabolised for CC/C(=C(\c1ccccc1)c1ccc(NC(=O)CCCSSCCCC(=O)OCCCc2cc(COC(=O)NCC(=O)N[C@H]3CCc4cc(OC)c(OC)c(OC)c4-c4ccc(SC)c(=O)cc43)ccc2OC(C)=O)cc1)c1ccccc1
88

* * *

# GI50 annotations
System: HeLa
Assay: Antiproliferative activity against human HeLa cells assessed as reduction in cell number incubated for 72 hrs
Format: functional

{"structure": "CC/C(=C(\\c1ccccc1)c1ccc(NC(=O)CCCCCCCCC(=O)O)cc1)c1ccccc1", "assay.result": "> 30 µM"}
{"structure": "CC/C(=C(\\c1ccccc1)c1ccc(N)cc1)c1ccccc1", "assay.result": "> 30 µM"}

From here, focus on the item given below.
Complete the entry with GI50 for CC/C(=C(\c1ccccc1)c1ccc(NC(=O)CCCSSCCCC(=O)O)cc1)c1ccccc1
> 30 µM
